Biological target: prothrombin (Homo sapiens, UniProt P00734 P00734:44-622)
Assay: filter; 50 nM prothrombin
Details: tags: Athens Research
Entry flag: condition met if binding signal reaches 20 % bound; condition not met if it does not.

Hi team, for TCCCATCGAACCGCGGGTAATCTTATGGGTCGGGTGGCTGAGGATCGATC (ssDNA) [AMX(399)_E4] , is the recorded binding signal at or above 20 % bound?
condition not met

Hi team, for TCCCGATCGAGAGTGGTATTTGTTTTCTGGGTGGCTGAGGATCGATC (ssDNA) [AMX(398)_F5] , is the recorded binding signal at or above 20 % bound?
condition not met

Hi team, for TCCCGAGCGATCGGGGTGGTTTTTTGGGAGTGGGTGGCTGAGGATCGATC (ssDNA) [AMX(399)_C7] , is the recorded binding signal at or above 20 % bound?
condition not met

Hi team, for TCCCGTCGAGCCGGGGTATGATTATGGGTGGGGTGGCTGAGGATCGATC (ssDNA) [AMX(398)_A9] , is the recorded binding signal at or above 20 % bound?
condition met

Hi team, for TCCCATGATTGGCCGGGGTGTCTTTTGGGTCGGGTGGCTGAGGATCGATC (ssDNA) [AMX(398)_C6] , is the recorded binding signal at or above 20 % bound?
condition not met

Hi team, for TCCCAGATGTGATCCGTATCCTGGTTTGGTTGGGTGGCTGAGGATCGATC (ssDNA) [AMX(398)_B3] , is the recorded binding signal at or above 20 % bound?
condition not met

Hi team, for TCCCGTCGATCAGGGGTAATTTGCTGGTGGTGGGTGGCTGAGGATCGATC (ssDNA) [AMX(399)_C8] , is the recorded binding signal at or above 20 % bound?
condition met

Hi team, for TCCCGAGATCTTTATAGGGTATTGTTGGTTGGGGTGGCTGAGGATCGATC (ssDNA) [AMX(399)_E12] , is the recorded binding signal at or above 20 % bound?
condition met

Hi team, for TCCCAATCGAGCCGGGGTTTGTTTGTTCTGGGTGGCTGAGGATCGATC (ssDNA) [AMX(398)_B1] , is the recorded binding signal at or above 20 % bound?
condition met

Hi team, for TCCCAACGATCTGTGGTTTTTTTGTTCTGGGTGGCTGAGGATCGATC (ssDNA) [AMX(398)_C1] , is the recorded binding signal at or above 20 % bound?
condition met

Hi team, for TCCCTTGATCCGGTGGTAGTTTTATTGGTGCGGGTGGCTGAGGATCGATC (ssDNA) [AMX(398)_F6] , is the recorded binding signal at or above 20 % bound?
condition met
